assay: chemical genetic growth profiling, strain panel (AID 1159580);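 note: tested at 20 µM; growth read once vehicle control cultures reached saturation at 30 °C; 1 = growth at the plate median or of vehicle wells; lower values mean less growth of the strain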; conditions: S. cerevisiae deletion strains, growth OD, locus YMR219W, strain ESC1, hits give low values
About 2,000 (36%) of roughly 5,500 compounds were called active. Another 18% or so got no clear call; they are omitted. This is one part of the list.
Answer each item with its documented normalized growth.
Field format: numeric only.

Entry "OCc1nccn1Cc1ccc(Cl)cc1" has what normalized growth? 1.01

Entry "CC(=O)c1ccc(N2C(=O)CSCC2=O)cc1" has what normalized growth? 0.994

Entry "O/N=C(/CNC(c1ccccc1)(c1ccccc1)c1ccccc1)c1ccccc1" has what normalized growth? 0.968

Entry "O=S(=O)(c1ccc(Cl)cc1)c1cc(C(F)(F)F)cc(C(F)(F)F)c1" has what normalized growth? 0.974

Entry "Clc1ccc(Oc2ccnc3cc(Cl)ccc23)cc1" has what normalized growth? 0.948

Entry O=C1c2ccccc2C2(c3ccccc3)NCCN12 (stereo unspecified) has what normalized growth? 1
